Test method notes: Trolox equivalent antioxidant capacity
Experimental context: TEAC assay, result in words
Property measured: radical scavenging activity, compared to Trolox

compound="O=c1cc(-c2ccccc2)oc2cc(O)cc(O)c12 [Chr, chrysin]" value_measured=negligible
compound="O=c1cc(-c2ccccc2)oc2cccc(O)c12 [HF, 5-hydroxyflavone]" value_measured=negligible
compound="O=c1c(-c2ccccc2)coc2cccc(O)c12 [HIF, 5-hydroxyisoflavone]" value_measured=negligible
compound="O=c1cc(-c2ccc(O)cc2)oc2cc(O)cc(O)c12 [Api, Apigenin]" value_measured=negligible

From here, focus on the item given below.
Tell me radical scavenging activity, compared to Trolox reported for O=c1c(-c2ccccc2)coc2cc(O)cc(O)c12 [DHIF, 5,7-dihydroxyisoflavone] negligible

###

Target of assay: metal-free Aβ42 (Homo sapiens, UniProt P05067)
Sequence (P05067 672-713): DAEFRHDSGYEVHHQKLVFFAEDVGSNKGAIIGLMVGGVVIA
Test method notes: Aβ42 aggregation inhibition experiments
Assay type: biochemical
Experimental context: [Aβ42] 25 μM, [flavonoid] 50 μM, pH 7.4, 37 °C, 24 h
Property measured: MW distribution of Aβ42 species by gel/Western blot

structure_notation=O=c1c(O)c(-c2ccc(O)c(O)c2)oc2cc(O)cc(O)c12 value_measured="minor change"
structure_notation=O=c1c(-c2ccc(O)c(O)c2)coc2cc(O)cc(O)c12 value_measured="minor change"

###

Target of assay: Electrophorus electricus AChE (eeAChE) (Electrophorus electricus)
Sequence (O42275 24-633): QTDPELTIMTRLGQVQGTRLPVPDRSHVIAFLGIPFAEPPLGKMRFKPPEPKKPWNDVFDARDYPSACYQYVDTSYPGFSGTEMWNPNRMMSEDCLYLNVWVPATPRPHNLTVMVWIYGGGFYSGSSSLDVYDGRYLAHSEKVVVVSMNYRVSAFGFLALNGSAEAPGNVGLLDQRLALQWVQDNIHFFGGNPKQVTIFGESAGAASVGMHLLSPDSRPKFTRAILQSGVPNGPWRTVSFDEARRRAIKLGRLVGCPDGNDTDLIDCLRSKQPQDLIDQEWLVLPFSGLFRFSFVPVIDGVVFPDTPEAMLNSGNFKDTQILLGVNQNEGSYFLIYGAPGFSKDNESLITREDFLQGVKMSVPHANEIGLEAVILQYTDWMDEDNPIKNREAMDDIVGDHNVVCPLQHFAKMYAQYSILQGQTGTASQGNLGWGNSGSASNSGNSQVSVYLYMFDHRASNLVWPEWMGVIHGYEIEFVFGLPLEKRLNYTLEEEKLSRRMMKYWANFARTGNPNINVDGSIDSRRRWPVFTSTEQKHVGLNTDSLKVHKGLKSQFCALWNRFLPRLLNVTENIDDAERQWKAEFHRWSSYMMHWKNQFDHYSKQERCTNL
Test method notes: AChE activity assay
Format: biochemical
Experimental context: eeAChE, result in words
Property measured: inhibition of the activity of AChE

compound="O=c1cc(-c2ccccc2)oc2cccc(O)c12 [HF, 5-hydroxyflavone]" target_of_assay="Electrophorus electricus AChE (eeAChE) (Electrophorus electricus)" property_measured="inhibition of the activity of AChE" value_measured="not inhibited"
compound=O=c1cc(-c2ccccc2)oc2cc(O)cc(O)c12 target_of_assay="Electrophorus electricus AChE (eeAChE) (Electrophorus electricus)" property_measured="inhibition of the activity of AChE" value_measured="not inhibited"
compound=O=c1cc(-c2ccc(O)cc2)oc2cc(O)cc(O)c12 target_of_assay="Electrophorus electricus AChE (eeAChE) (Electrophorus electricus)" property_measured="inhibition of the activity of AChE" value_measured="not inhibited"
compound="O=c1c(-c2ccccc2)coc2cccc(O)c12 [HIF, 5-hydroxyisoflavone]" target_of_assay="Electrophorus electricus AChE (eeAChE) (Electrophorus electricus)" property_measured="inhibition of the activity of AChE" value_measured="not inhibited"
